System: U2OS
Assay: Incucyte cell viability with U2OS; further: unitless GR value; below 1 slowed growth and below 0 cell loss
Type: toxicity, cell-based
Settings: human, 6 h, 10 µM, compound concentration 10 uM, replicate number 1
Lab note: cut-off is 0.6. Strictly less in Growth Rate is true (1). Exactly 0.6 or more is false (0).

Task item: Decide: Growth Rate of CC/C(=C(\c1ccccc1)c1ccc(OCCN(C)C)cc1)c1ccccc1.O=C(O)CC(O)(CC(=O)O)C(=O)O [TAMOXIFEN CITRATE] strictly below 0.6?
Reply: false (0)

Task item: Decide: Growth Rate of Br.CO[C@H]1CC=C2CCN3CCC4=C(CC(=O)OC4)[C@]23C1 strictly below 0.6?
Reply: true (1)

Task item: Decide: Growth Rate of CNc1nc(Nc2ccc(C(=O)N3CCOCC3)cc2OC)ncc1Cl strictly below 0.6?
Reply: true (1)

Task item: Decide: Growth Rate of CN[C@@H](C)C(=O)N[C@H](C(=O)N1CCC[C@H]1C(=O)N[C@@H]1CCCc2ccccc21)C1CCCCC1.Cl strictly below 0.6?
Reply: false (0)

Task item: Decide: Growth Rate of Cn1c(Nc2c(Cl)cccc2Cl)nc2ccc3nc[nH]c(=O)c3c21 strictly below 0.6?
Reply: false (0)

Others:
Task item: Decide: Growth Rate of COCCOCn1c(S(C)(=O)=O)nc2c1c(=O)n(C)c(=O)n2C strictly below 0.6?
Reply: true (1)

Task item: Decide: Growth Rate of C[C@H]1CN(C2COC2)CCN1c1ccc(Nc2cc(-c3ccnc(N4CCn5c(cc6c5CC(C)(C)C6)C4=O)c3CO)cn(C)c2=O)nc1 strictly below 0.6?
Reply: true (1)

====

Recorded Growth Rate values for a group of molecules are listed next.
Test system: HEK-293T
Assay: Incucyte cell viability with HEK293T; further: unitless GR value; below 1 slowed growth and below 0 cell loss
Format: toxicity, cell-based
Conditions: human, 24 h, 10 µM, compound concentration 10 uM, replicate number 2

What the record says about c1cc(-c2cnn3cc(-c4ccc(N5CCNCC5)cc4)cnc23)c2cccnc2c1 : Growth Rate is -0.45

What the record says about Cc1c[nH]c(-c2cnc(NCCNc3ccc(C#N)cn3)nc2-c2ccc(Cl)cc2Cl)n1 [LADUVIGLUSIB] : Growth Rate is 0.75

What the record says about Nc1n[nH]c2nc(-c3ccc(NS(=O)(=O)c4cccc(Cl)c4Cl)cc3)cnc12 : Growth Rate is 0.95

Others:
What the record says about CCCCNc1ncc2c(-c3ccc(CN4CCN(C)CC4)cc3)cn([C@H]3CC[C@H](O)CC3)c2n1 : Growth Rate is -0.28

What the record says about Cc1cc([N+](=O)[O-])c(NS(=O)(=O)c2cccc(C(=O)O)c2)cc1-c1cccnc1 [ALOFANIB] : Growth Rate is 0.79

====

Test system: Fibroblast
Experiment: Incucyte cell viability with human fibroblast; further: unitless GR value; below 1 slowed growth and below 0 cell loss
Type: toxicity, cell-based
Settings: 6 h, 10 µM, compound concentration 10 uM, replicate number 2
quantity_name: Growth Rate
A bare number is all that is needed in reply.

Would you please look over these solved cases?
What the record says about O=C(Nc1cc(C(F)(F)F)cc(C(F)(F)F)c1)c1cc(Cl)ccc1O : Growth Rate is -1

What the record says about COc1cc(-c2cncc(-c3cnn(C4CCNCC4)c3)c2)cc(OC)c1OC : Growth Rate is 0.74

What the record says about CCCOc1cnc(CN/C=C2\C(=O)NC(=O)c3ccc(I)cc32)cc1O : Growth Rate is -0.38

What the record says about O=c1[nH]c(CS[C@H]2CC[C@H](O)CC2)nc2cc(OCC3CC3)cc(F)c12 : Growth Rate is 0.65

What the record says about Cn1cc(-c2ccc(N(C(=O)NCc3ccccc3)[C@H]3CC[C@H](Nc4ccc(C#N)cn4)CC3)cc2)ccc1=O : Growth Rate is 0.48

Others:
What the record says about C[C@H](CCC(=O)O)[C@H]1CC[C@H]2[C@@H]3CC[C@@H]4C[C@H](O)CC[C@]4(C)[C@H]3C[C@H](O)[C@]12C : Growth Rate is 0.72

What the record says about C[S+](C)[O-] [DIMETHYL SULFOXIDE] : Growth Rate is 0.8

What the record says about CC(=O)Nc1ncc(CN2CCC[C@H](Cc3cc(C)nc(C)c3)C2)s1 : Growth Rate is 0.74

What the record says about CC[C@@H](Nc1c(C#N)c(-c2ccc(-c3cccc(C)c3F)cc2)nc2cnccc12)C(=O)O : Growth Rate is 0.39

====

Tested on: HEK-293T
Experiment: Incucyte cell viability with HEK293T; further: unitless GR value; below 1 slowed growth and below 0 cell loss
Format: toxicity, cell-based
Settings: human, 18 h, 10 µM, compound concentration 10 uM, replicate number 2
quantity_name: Growth Rate
A bare number is all that is needed in reply.

What the record says about Cc1ccc(S(=O)(=O)Nc2ccc(-n3nc(C(F)(F)F)cc3C(F)(F)F)cc2)cc1 : Growth Rate is 0.81

What the record says about Clc1cccc(Nc2nccc(NCCCN3CCOCC3)n2)c1 : Growth Rate is 0.82

What the record says about CN1CCN(C(=O)Cc2ccc(N/C(=C3\C(=O)Nc4cc(Cl)ccc43)c3ccccc3)cc2)CC1 : Growth Rate is 0.82

What the record says about O=c1cc(-c2ccccc2)oc2c1ccc1ccccc12 : Growth Rate is 0.8

// moving on: another record for Growth Rate
What the record says about COC(=O)c1cc2c(cn1)[nH]c1ccccc12 : Growth Rate is 0.78

====

Recorded Growth Rate values for a group of compounds are listed next.
System: HEK-293T
Assay: Incucyte cell viability with HEK293T; further: unitless GR value; below 1 slowed growth and below 0 cell loss
Format: toxicity, cell-based
Details: human, 0 h, 10 µM, compound concentration 10 uM, replicate number 1
A bare number is all that is needed in reply.

Would you please look over these solved cases?
What the record says about NC(=O)OC[C@H](NC(=O)Cn1nc(-c2ccc(Cl)cc2)n(C[C@H](O)C(F)(F)F)c1=O)c1cccc(C(F)(F)F)c1 : Growth Rate is 0.72

What the record says about Oc1ccc(-c2nc(-c3ccncc3)c(-c3ccc(F)cc3)[nH]2)cc1 [SB-202190] : Growth Rate is 0

Others:
What the record says about COc1cc(F)ccc1-c1cc(Nc2cc(CS(C)(=N)=O)ccn2)ncc1F (stereo not drawn) [ENITOCICLIB] : Growth Rate is -1

What the record says about Cc1cc(NC(=O)c2cccc(NC(=O)/C=C/CN(C)C)c2)ccc1Nc1nccc(-c2cccnc2)n1 : Growth Rate is 0

What the record says about Cn1cnc(Cn2ccc3ccc(CNCc4[nH]c5ccccc5c4[C@H]4NC(=O)c5ccc(O)cc54)cc32)c1 : Growth Rate is -0.01

What the record says about Cc1nccc(COC(=O)N2C[C@@H]3[C@@H](CNC(=O)c4ccc5[nH]nnc5c4)[C@@H]3C2)n1 [BI 3017] : Growth Rate is 0.2

What the record says about COC[C@@H](CC(C)C)NC1=N/C(=C\c2ccc3ncsc3c2)C(=O)N1C : Growth Rate is 0.16

What the record says about CC(C)C[C@H](NC(=O)[C@@H](O)[C@H](N)Cc1ccccc1)C(=O)O [UBENIMEX] : Growth Rate is 0.14

What the record says about CCCN1CCC(C#N)(NC(=O)[C@H](CC(C)(C)C)NC(=O)N2CCOCC2)CC1 : Growth Rate is 0.04

What the record says about C[C@H](CCOc1cccc(CC(=O)O)c1)N(Cc1cccc(C(F)(F)F)c1Cl)CC(c1ccccc1)c1ccccc1.Cl : Growth Rate is -0.43

What the record says about COc1cccc(CNc2ccc(S(=O)(=O)Nc3nc4ccccc4s3)cc2)c1O [VLX-1005] : Growth Rate is 0.18

What the record says about O=c1cc(-c2cc(F)c(Cl)nc2Cl)[nH]c2c(-c3ccccc3)c(C(F)(F)F)nn12 : Growth Rate is 0.89

What the record says about O=C(Nc1snnc1C(=O)Nc1ccc(N2CCCC2)cc1)c1cncc(C(F)(F)F)c1 : Growth Rate is 0.43

====

Recorded Growth Rate values for a group of compounds are listed next.
Test system: HEK-293T
Assay: Incucyte cell viability with HEK293T; further: unitless GR value; below 1 slowed growth and below 0 cell loss
Assay type: toxicity, cell-based
Settings: human, 18 h, 10 µM, compound concentration 10 uM, replicate number 2
Numbered stars: 1 amine (or outer) side, 2 acyl side, 3 side chain; on linkers, the order of the positions; unused ones are H or OH. Bridge positions count the residues as written; N and C are the ends. Square brackets hold non-standard residues; d marks the D form. Peptide text beside a SMILES is read from it. I, II: the chains in the order shown. Hexamethylenediamine = C(CCCN[*:2])CCN[*:1]; Dip = N[C@H](C(=O)O)C(c1ccccc1)c1ccccc1; Chg = N[C@H](C(=O)O)C1CCCCC1; NMeA = CN[C@@H](C)C(=O)O
A bare number is all that is needed in reply.

Would you please look over these solved cases?
The measured Growth Rate that CNS(=O)(=O)c1ccc(N(C)C)c(Nc2ncnc3cc(OC)c(OC)cc23)c1 showed for HEK-293T is 0.42

The measured Growth Rate that CC(CNS(=O)(=O)C(C)C)c1ccc(-c2ccc(C#N)cc2)cc1 (configuration not stated) showed for HEK-293T is 0.16

The measured Growth Rate that COc1ccc(Cl)cc1[C@]1(F)C(=O)Nc2cc(C(F)(F)F)ccc21 showed for HEK-293T is 0.4

The measured Growth Rate that CC(Oc1cc(-c2cnn(C3CCNCC3)c2)cnc1N)c1c(Cl)ccc(F)c1Cl (configuration not stated) showed for HEK-293T is -0.18

The measured Growth Rate that Cc1cc(C2CCCNC2)ccc1Nc1ncc(Br)c(NCc2cccc3c2C(C)(C)C(=O)N3)n1 (configuration not stated) showed for HEK-293T is 0.12

The measured Growth Rate that CN[C@@H](C)C(=O)N[C@H](C(=O)N1CCC[C@H]1C(=O)N[C@H](C(=O)NCCCCCCNC(=O)[C@@H](NC(=O)[C@@H]1CCCN1C(=O)[C@@H](NC(=O)[C@H](C)NC)C1CCCCC1)C(c1ccccc1)c1ccccc1)C(c1ccccc1)c1ccccc1)C1CCCCC1 (I: H-[NMeA][Chg]P[Dip] / II: H-[NMeA][Chg]P[Dip]; linker I:C-II:C via Hexamethylenediamine) showed for HEK-293T is -0.31

Others:
The measured Growth Rate that Cc1cc(NC(=O)c2cccc(NC(=O)/C=C/CN(C)C)c2)ccc1Nc1nccc(-c2cccnc2)n1 showed for HEK-293T is -0.32

The measured Growth Rate that Nc1ncnc2c1c(COc1cccc(Cl)c1)nn2C1CCOCC1 showed for HEK-293T is 0.5

The measured Growth Rate that CC(=O)N1CCC(c2ccc(C(=O)NC(=N)N)cc2C(F)(F)F)CC1 showed for HEK-293T is 0.77

The measured Growth Rate that COc1cc(C(=O)N2CC[C@@H](O)[C@@H](N)C2)cc2nc(-c3cc4ccccc4n3CC3CC3)n(C)c12.Cl showed for HEK-293T is 0.3

The measured Growth Rate that Cn1ncnc1COc1nn2c(-c3cc(F)ccc3F)nnc2cc1C(C)(C)C showed for HEK-293T is 0.77

The measured Growth Rate that CCCCc1oc2ccccc2c1C(=O)c1cc(I)c(OCCN(CC)CC)c(I)c1.Cl [AMIODARONE HYDROCHLORIDE] showed for HEK-293T is 0.1

The measured Growth Rate that CCCCCCCCCCCCCC(=O)O[C@@H]1[C@@H](C)[C@@]2(O)[C@@H](C=C(CO)C[C@]3(O)C(=O)C(C)=C[C@@H]23)[C@@H]2C(C)(C)[C@]12OC(C)=O [PHORBOL MYRISTATE ACETATE] showed for HEK-293T is 0.99

The measured Growth Rate that O=C1NC(NC23CC4CC(CC(C4)C2)C3)=N/C1=C\c1ccc2ncsc2c1 showed for HEK-293T is 0.09

The measured Growth Rate that CC(C)NC(=O)[C@H]1CCC[C@H]1Nc1nc(Nc2ccc(CN(C)C)cc2)ncc1Br.Cl showed for HEK-293T is -0.19

The measured Growth Rate that C=CC(=O)Nc1cccc(C(=O)Nc2ccc(NC(=O)c3cccc(-c4ccn[nH]4)n3)cc2)c1 showed for HEK-293T is 0.59

The measured Growth Rate that CN[C@@H](C)C(=O)N[C@H]1CCCC[C@H]2CC[C@@H](C(=O)N[C@@H](c3ccccc3)c3cn(CCCCc4ccc(CCCCn5cc([C@@H](NC(=O)[C@@H]6CC[C@@H]7CCCC[C@H](NC(=O)[C@H](C)NC)C(=O)N76)c6ccccc6)nn5)cc4)nn3)N2C1=O showed for HEK-293T is 0.74
